# measurement.target: Bacterial 70S ribosome (Bacteria) (UniProt P0A7V0+P60723+P0AG67+P0A7R5+P0A7R9+P0A7S3+P0A7S9+P0AG59+P0ADZ4+P0A7T3+P0AG63+P0A7T7+P0A7U3+P0A7U7+P68679+P0A7V3+P0A7V8+P0A7W1+P02358+P02359+P0A7W7+P0A7X3+P0A7J3+P0A7J7+P0AA10+P0ADY3+P02413+P0ADY7+P0AG44+P0C018+P0A7K6+P0A7L0+P0A7L3+P0AG48+P61175+P0ADZ0+P60624+P68919+P0A7L8+P0A7M2+P0A7M6+P60422+P0AG51+P0A7N1+P0A7M9+P0A7N4+P0A7N9+P0A7P5+P0A7Q1+Q2EEQ2+P0A7Q6+P60438+P62399+P0AG55+P0A7K2)
# experiment.description: Displacement of [14C]erythromycin from Escherichia coli ribosomes after 30 mins by scintillation spectrometer analysis
// reported pK50 per item
observable: pK50

compound | observable | numeric.value
CO[C@@H]1[C@@H](O[C@@H]2O[C@H](C)[C@@H](O[C@H]3C[C@@](C)(O)[C@@H](OC(=O)CC(C)C)[C@H](C)O3)[C@H](N(C)C)[C@H]2OC(=O)CCC(=O)O)[C@@H](CC=O)C[C@@H](C)[C@@H](O)/C=C/C=C/C[C@@H](C)OC(=O)C[C@H]1OC(C)=O | pK50 | 5.5
CCCC(=O)O[C@H]1[C@H](C)O[C@@H](O[C@H]2[C@H](N(C)C)[C@@H](OC(C)=O)[C@H](O[C@H]3[C@@H](CC=O)C[C@@H](C)[C@@H](OC(C)=O)/C=C/C=C/C[C@@H](C)OC(=O)C[C@@H](O)[C@@H]3OC)O[C@@H]2C)C[C@@]1(C)O | pK50 | 4.6
CCCC(=O)O[C@H]1/C=C/C=C/C[C@@H](C)OC(=O)C[C@@H](OC(C)=O)[C@H](OC)[C@@H](O[C@@H]2O[C@H](C)[C@@H](O[C@H]3C[C@@](C)(O)[C@@H](OC(=O)CC(C)C)[C@H](C)O3)[C@H](N(C)C)[C@H]2O)[C@@H](CC=O)C[C@H]1C | pK50 | 5.7
CCCC(=O)O[C@H]1[C@H](C)O[C@@H](O[C@H]2[C@H](N(C)C)[C@@H](O)[C@H](O[C@H]3[C@@H](CC=O)C[C@@H](C)[C@@H](O)/C=C/C=C/C[C@@H](C)OC(=O)C[C@@H](OC(C)=O)[C@@H]3OC)O[C@@H]2C)C[C@@]1(C)O | pK50 | 5.9
CO[C@@H]1[C@@H](O[C@@H]2O[C@H](C)[C@@H](O[C@H]3C[C@@](C)(O)[C@@H](OC(=O)CC(C)C)[C@H](C)O3)[C@H](N(C)C)[C@H]2O)[C@@H](CC=O)C[C@@H](C)[C@@H](OC(C)=O)/C=C/C=C/C[C@@H](C)OC(=O)C[C@H]1OC(C)=O | pK50 | 5.9
CO[C@@H]1[C@@H](O[C@@H]2O[C@H](C)[C@@H](O[C@H]3C[C@@](C)(O)[C@@H](OC(=O)CC(C)C)[C@H](C)O3)[C@H](N(C)C)[C@H]2O)[C@@H](CC=O)C[C@@H](C)[C@@H](O)/C=C/C=C/C[C@@H](C)OC(=O)C[C@H]1O (stereo in doubt; 2) | pK50 | 6
CO[C@@H]1[C@@H](O[C@@H]2O[C@H](C)[C@@H](O[C@H]3C[C@@](C)(O)[C@@H](OC(=O)CC(C)C)[C@H](C)O3)[C@H](N(C)C)[C@H]2OC(C)=O)[C@@H](CC=O)C[C@@H](C)[C@@H](OC(C)=O)/C=C/C=C/C[C@@H](C)OC(=O)C[C@H]1OC(C)=O | pK50 | 4.7
